Listed here: items and their measured inhibition.
molecular target: Substance-P receptor (Cavia porcellus) (UniProt P30547); assay: Percent inhibition of [3H]-SP (substance P) binding to NK1 receptor relative to compound 7 (100); design: concentration or dose not given beside the values; details: concentration not given here
Sequence (P30547 whole entry): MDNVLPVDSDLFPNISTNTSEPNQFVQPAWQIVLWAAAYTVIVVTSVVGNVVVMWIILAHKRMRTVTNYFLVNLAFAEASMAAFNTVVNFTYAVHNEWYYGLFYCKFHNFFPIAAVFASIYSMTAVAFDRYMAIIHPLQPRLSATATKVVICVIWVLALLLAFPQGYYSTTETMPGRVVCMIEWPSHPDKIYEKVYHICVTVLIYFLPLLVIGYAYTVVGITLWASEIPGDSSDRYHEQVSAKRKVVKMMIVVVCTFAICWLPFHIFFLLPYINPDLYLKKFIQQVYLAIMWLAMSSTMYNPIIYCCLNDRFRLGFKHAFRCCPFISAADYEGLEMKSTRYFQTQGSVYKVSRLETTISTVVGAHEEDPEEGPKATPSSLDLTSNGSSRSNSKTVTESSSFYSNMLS

Worked cases, answers included:
INSERT INTO assay_data (compound, measurement_label, value_measured) VALUES
  ('CN(Cc1ccccc1)C(=O)[C@@H](Cc1ccccc1)NC(=O)C(CCCCNC(=O)C(C)(C)C)NC(=O)c1c[nH]c2ccccc12 (stereo not given in full)', 'inhibition', '44%'),
  ('CC(=O)NCCC(=O)NCCCCC(NC(=O)c1c[nH]c2ccccc12)C(=O)N[C@H](Cc1ccccc1)C(=O)N(C)Cc1ccccc1 (stereo not given in full)', 'inhibition', '82%'),
  ('CC(=O)NCCCCC(NC(=O)c1c[nH]c2ccccc12)C(=O)N[C@H](Cc1ccccc1)C(=O)N(C)Cc1ccccc1 (stereo not given in full)', 'inhibition', '87%'),
  ('CC(O)C(NC(=O)OC(C)(C)C)C(=O)NCCCCC(NC(=O)c1c[nH]c2ccccc12)C(=O)N[C@H](Cc1ccccc1)C(=O)N(C)Cc1ccccc1 (stereo not given in full)', 'inhibition', '98%'),
  ('CC(=O)NCC(=O)NCCCCC(NC(=O)c1c[nH]c2ccccc12)C(=O)N[C@H](Cc1ccccc1)C(=O)N(C)Cc1ccccc1 (stereo not given in full)', 'inhibition', '98%');

Would you kindly look at the next entry?
Lookup: // returns reported inhibition for input CN(C)C(=O)NCCCCC(NC(=O)c1c[nH]c2ccccc12)C(=O)N[C@H](Cc1ccccc1)C(=O)N(C)Cc1ccccc1 (stereo not given in full)
Found: 144%
